- protocolDescription: [11C]GSK1034702 PET brain distribution and kinetics in healthy male humans
- Format: in vivo
- conditionDescription: human, medial temporal lobe (MTL), intravenous, MTL, Subject 4 Scan 1 (baseline), read-out: V T
attributeMeasured: Kp
Please give only the number in your answer, with no unit.

[ask] Tell me the measured Kp of [11CH3]c1cc(F)c2[nH]c(=O)n(C3CCN(C4CCOCC4)CC3)c2c1 [[^11C]GSK1034702] , please.
[reply] 7.11

---

- protocolDescription: [11C]GSK1034702 PET brain distribution and kinetics in anaesthetised baboons
- Assay type: in vivo, Papio anubis
- conditionDescription: female, baboon (Papio anubis), occipital cortex, intravenous, Occipital Ctx; Subject A Exam 1; baboon; read-out: Regional V T
- Description: The brain distribution of carbon-11-labelled GSK1034702 ([^11C]GSK1034702) was conducted in two anaesthetised baboons (P. anubis), to assess its transport across the BBB. These studies were conducted at Columbia University Medical Center, New York. The study was approved by the Columbia University Institutional Animal Care and Use Committee (IACUC). Two adult baboons were studied over a 6-week period. […]
attributeMeasured: Kp
// return just the number, without any unit appended

[ask] Requested read-out: Kp. Entry: [11CH3]c1cc(F)c2[nH]c(=O)n(C3CCN(C4CCOCC4)CC3)c2c1 [[^11C]GSK1034702]
[reply] 4.49
